Where these numbers come from: PubChem BioAssay (EPA / NIEHS)

# Experimental system: Estrogen receptor (Homo sapiens) (UniProt P03372)
# Sequence (P03372 whole entry, looked up, the tested form may be a part): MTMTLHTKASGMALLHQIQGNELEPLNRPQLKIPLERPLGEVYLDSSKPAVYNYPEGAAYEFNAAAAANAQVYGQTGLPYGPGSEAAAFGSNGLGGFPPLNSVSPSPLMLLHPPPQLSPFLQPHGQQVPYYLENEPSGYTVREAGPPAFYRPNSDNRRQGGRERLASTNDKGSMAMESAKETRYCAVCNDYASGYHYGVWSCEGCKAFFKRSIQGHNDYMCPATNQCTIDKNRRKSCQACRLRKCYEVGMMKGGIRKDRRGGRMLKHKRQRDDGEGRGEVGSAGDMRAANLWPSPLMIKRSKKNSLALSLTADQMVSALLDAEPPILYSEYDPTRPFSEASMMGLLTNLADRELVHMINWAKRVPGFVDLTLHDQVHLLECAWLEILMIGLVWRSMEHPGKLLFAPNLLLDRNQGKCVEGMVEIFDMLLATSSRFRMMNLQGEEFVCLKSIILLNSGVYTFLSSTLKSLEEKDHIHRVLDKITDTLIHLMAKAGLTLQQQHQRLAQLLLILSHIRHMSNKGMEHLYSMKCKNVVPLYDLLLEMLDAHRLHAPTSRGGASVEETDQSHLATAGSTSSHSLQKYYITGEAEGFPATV
# Assay protocol: OT_ER_ERaERa_0480: Odyssey Thera (OT) 8-hour HEK293T Protein-Complementation Assay for Estrogen Receptor-alpha/-alpha Homodimer (AID 2283351);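 further: rise in fluorescence from reassembled reporter fragments on ERα LBD homodimer in nucleus or whole cell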
Records with an inconclusive call do not appear. Activity calls are given as the source filed them. How the source made its calls: active means hit-call score of the fitted dose curve at least 0.9, where 1 is the maximum; inconclusive means response in the unintended direction; inactive means score below 0.9.
Select the correct class. Options are y for active, n for inactive and nothing else.

Compound	Experimental system	Label class
CC(=O)OCCOC(C)=O	Estrogen receptor (Homo sapiens) (UniProt P03372)	n
OCCN1CCNCC1	Estrogen receptor (Homo sapiens) (UniProt P03372)	n
c1ccc(CCCc2ccccn2)cc1	Estrogen receptor (Homo sapiens) (UniProt P03372)	n
CC1COc2ccccc2N1C(=O)C(Cl)Cl (stereo not given)	Estrogen receptor (Homo sapiens) (UniProt P03372)	n
CC(=O)C=CC1=C(C)CCCC1(C)C	Estrogen receptor (Homo sapiens) (UniProt P03372)	n

# lookup: test call for CC(C)(N)CO
n

I'd appreciate the recorded outcome for Cc1ccc(S)cc1 from this test.
n

Outcome logged for O=Nc1ccc(Nc2ccccc2)cc1 in this assay:
n

Kindly provide the recorded test outcome for the following compound: C=C(C)C(=O)O
n

Test call for this compound, please: CCCCCCCCCC=O
n

In this assay, the call recorded for BrC1CCC(Br)C(Br)CCC(Br)C(Br)CCC1Br (stereo not given) was what?
n

Which result was noted for this compound in the test: NCCCN1CCOCC1
n

Could you check what this test reported for CC(=O)OCCC(C)CC(C)(C)C (stereo not given) ?
n

Give the logged outcome of this assay for the following compound: CC(C)c1cccc(O)c1
n

Recorded test call requested for CCN(CC)c1ccc2c(-c3ccccc3C(=O)O)c3ccc(=[N+](CC)CC)cc-3oc2c1
y

---

# Read-out: Interleukin-8 (IL8), CXCL8 (gene 3576)
# Assay protocol: BSK_3C_IL8: BioMAP Diversity Plus: 3C Assay for Interleukin-8 (IL8) Biomarker Activity (AID 2283020)
# Assay setup: primary human endothelial cells (HUVEC); actives raise or lower the signal
Calls of active or inactive are those of the source. How the source made its calls: active means hit-call score of the fitted dose curve at least 0.9, where 1 is the maximum; inactive means score below 0.9.
Choose the fitting class; nothing outside TRUE for active, FALSE for inactive is accepted.

Some solved entries appear below for comparison.
Compound	Label class
O=C(O)c1ccc([N+](=O)[O-])cc1	FALSE
CC[Si](OC(C)=O)(OC(C)=O)OC(C)=O	FALSE
CCCCCCCCCC=O	FALSE
C=CCOC(=O)CCC1CCCCC1	FALSE
CC(C)c1ccc(C(C)C)cc1	FALSE

Field: outcome | Entry: CCCCC/C=C/C=C/C=O
TRUE

Test call, this compound: O=[N+]([O-])c1cc(C(F)(F)F)ccc1Cl
FALSE

# fetch the recorded call for NCCNCCN here
FALSE

How was CC(=O)[C@H]1CC[C@H]2[C@@H]3CC=C4C[C@@H](O)CC[C@]4(C)[C@H]3CC[C@]12C classified in this test?
FALSE

Hi team, can someone confirm the assay call for CC1COc2ccccc2N1C(=O)C(Cl)Cl (stereo unspecified) ?
FALSE

I would be grateful if you could indicate the recorded call for Cc1cc(C2(c3cc(C)c(O)cc3C)OS(=O)(=O)c3ccccc32)c(C)cc1O .
FALSE

Record lookup: outcome of this test for CC(=O)OCCC(C)CC(C)(C)C (stereo unspecified) ?
FALSE

Short answer needed: outcome of this test for COc1cc(C=O)ccc1OC(=O)C(C)C ?
FALSE

Hello, I am checking results. What call was entered for C=C(C)C(=O)O[C@H]1C[C@@H]2CC[C@@]1(C)C2(C)C ?
TRUE
